Test system: NCI/ADR-RES ovarian
Assay: NCI tumour cell line growth inhibition, 48 h
Metric: TGI (µM)

Molecule: OB1OCc2cc(/C=C/c3cccc(C(F)(F)F)c3)ccc21
Metric: TGI
Qualifying Sign: =
Value: 23.9
//
Molecule: O=S1(=O)NCCCN1CCNc1nccc(-c2c(-c3cccc(O)c3)nc3sccn23)n1
Metric: TGI
Qualifying Sign: >
Value: 100
//
Molecule: CCCCCCCCCCCC[n+]1ccccc1 (tested in a mixture with another compound)
Metric: TGI
Qualifying Sign: =
Value: 52.2
//
Molecule: CNC(=O)c1cc2c(Oc3ccc(NC(=O)C4(C(=O)Nc5ccc(F)cc5)CC4)cc3)ccnc2cc1OC
Metric: TGI
Qualifying Sign: >
Value: 100
//
Molecule: CC1=C2C(=O)c3ccccc3C2=C(C)S(=O)(=O)O1
Metric: TGI
Qualifying Sign: >
Value: 10
//
Molecule: CCCNC(=O)CCC(C)[C@H]1CCC2C3C(C[C@H](OC(C)=O)[C@@]21C)[C@@]1(C)CCC2(C[C@H]1C[C@H]3OC(C)=O)OOC1(CCC(C)CC1)OO2 (stereo partly specified)
Metric: TGI
Qualifying Sign: =
Value: 40.5

----------
// reported GI50 for each item listed
Test system: OVCAR-4 ovarian
Assay: NCI tumour cell line growth inhibition, 48 h

Mol Smiles: Cn1c([N+](=O)[O-])cnc1/C=C1\Oc2cc(Cl)ccc2C1=O
GI50: 2480 nM
//
Mol Smiles: Cn1cc(-c2csc(-c3cn(C)c4ccccc34)n2)c2cnccc21
GI50: 1460 nM
//
Mol Smiles: NC(=O)C1(N2CCCCC2)CCN(CCCC(=O)c2ccc(F)cc2)CC1
GI50: 8720 nM

----------
// reported TGI for each item listed
Test system: OVCAR-5 ovarian
Experiment: NCI tumour cell line growth inhibition, 48 h

Mol Smiles: N#CCCN(CCC#N)c1ccc(/C=C2\N=C(c3ccccc3)N(c3ccc(Cl)cc3)C2=O)cc1
Target Desc: OVCAR-5 ovarian
TGI: > 100 µM
--
Mol Smiles: Cc1ccc2nc3c(Cl)c(C)c(=O)cc-3sc2c1
Target Desc: OVCAR-5 ovarian
TGI: > 100 µM
--
Mol Smiles: O=S1(=O)NCCCN1CCNc1nccc(-c2c(-c3cccc(O)c3)nc3sccn23)n1
Target Desc: OVCAR-5 ovarian
TGI: > 100 µM

----------
// reported TGI for each item listed
Test system: SR leukemia
Assay: NCI tumour cell line growth inhibition, 48 h
Metric: TGI

Compound: C=CCn1c(=O)ccn(COCCO)c1=O
Metric: TGI
Value: > 100 µM
--
Compound: COc1ccc(CC(O)CN2CCOCC2)cc1 (stereo unspecified)
Metric: TGI
Value: > 100 µM
--
Compound: Cn1c(/C(C#N)=C/c2ccc3ccccc3c2)cc2ccccc21
Metric: TGI
Value: > 100 µM
--
Compound: O=c1c2cc3c(cc2[nH]c2ncccc12)OCO3
Metric: TGI
Value: > 10 µM
--
Compound: NC(=O)c1cccc(Nc2nccc(Nc3cccc(F)c3)n2)c1
Metric: TGI
Value: > 25 µM
--
Compound: CC(CC(=O)Nc1ccc(NC(=O)CC(C)N=NC(N)=S)cc1)N=NC(N)=S (stereo unspecified)
Metric: TGI
Value: > 100 µM

----------
// reported TGI for each item listed
Tested on: LOX IMVI melanoma
Assay: NCI tumour cell line growth inhibition, 48 h

Compound: CCOC1Oc2ccccc2-c2oc(=O)c(Sc3ccc(C)cc3)cc21 (stereo unspecified)
TGI: > 100 µM
//
Compound: NC(=O)/C=C/C(=O)O
TGI: > 5000 µM
//
Compound: O=C(NC12CC3CC(CC(C3)C1)C2)C(=O)c1c[nH]c2ccc(Cl)cc12
TGI: 84.8 µM
//
Compound: COc1nc(C#CCC(C)O)nc(OC)n1 (stereo unspecified)
TGI: 40.6 µM
//
Compound: O=P(c1ccccc1)(c1ccccc1)N1O[C@@H](c2ccccc2)C=C[C@H]1c1ccccc1
TGI: 24.1 µM
//
Compound: CC1=C(C(=O)Nc2ccccc2C)C(/C=C/c2ccccc2)C(C(=O)Nc2ccccc2C)=C(C)N1
TGI: > 100 µM
//
Compound: C=C1CC2(OC1=O)C(=O)N(CCCN1C(=O)C3(CC(=C)C(=O)O3)c3ccccc31)c1ccccc12 (stereo unspecified)
TGI: 2.1 µM
//
Compound: CC12CC(=O)C3C(C(=O)C1)C32C (stereo unspecified)
TGI: > 100 µM
//
Compound: CCOC(=N)n1c(=O)n(C2=NCCN2)c2ccccc21
TGI: > 100 µM
//
Compound: C#CCC(N)(CO)C(=O)O (stereo unspecified)
TGI: > 100 µM
//
Compound: COc1ccccc1/C=C/C(=O)/C=C/c1ccccc1O
TGI: 2.01 µM
//
Compound: O=c1cc(N=P(c2ccccc2)(c2ccccc2)c2ccccc2)n(-c2ccccc2)c(=O)n1-c1ccccc1
TGI: 49.5 µM
//
Compound: CC(=O)O[C@]12CCCCCC1C1(O)C(O)CCC[C@H]12 (stereo partly specified)
TGI: > 100 µM
//
Compound: CCCCC1c2c([nH]c3ccccc23)C2C(=O)N(c3ccc(OC)cc3)C(=O)C2C1CCC (stereo unspecified)
TGI: > 10 µM
//
Compound: C(=N\NC1=NCCCN1)/c1ccc2ccccc2c1
TGI: 21 µM
//
Compound: C=C[C@@H]1C(CO)=CCC2[C@H]1CCC1C(C)(C)C(=O)CC[C@]21C (stereo partly specified)
TGI: > 100 µM
//
Compound: COc1ccc(Nc2nc3ccccc3nc2-c2cccs2)cc1
TGI: > 100 µM
//
Compound: O=S1(=O)NCCCN1CCNc1nccc(-c2c(-c3cccc(O)c3)nc3sccn23)n1
TGI: 24 µM
//
Compound: Cc1ccccc1Nc1nc2c(s1)C(=O)c1ccccc1C2=O
TGI: 5.27 µM
//
Compound: CCCCCCCCCCN=C(c1ccc(N(C)C)cc1)c1ccc(N(C)C)cc1
TGI: > 96.1 µM
//
Compound: CCOC(=O)c1c(-c2ccc(OC)cc2)c(C#N)c(=S)n(C2OC(COC(C)=O)C(OC(C)=O)C(OC(C)=O)C2OC(C)=O)c1C (stereo unspecified)
TGI: > 100 µM
//
Compound: NC(=O)c1cccc(Nc2nccc(Nc3cccc(F)c3)n2)c1
TGI: > 25 µM
//
Compound: C=CCO/N=C/c1cc(NC(=S)c2ccoc2C)ccc1Cl
TGI: 44.5 µM
//
Compound: CN(C)CCCN1C(=S)N(CCCN(C)C)c2c3cc(O)ccc3nc3c([N+](=O)[O-])ccc1c23
TGI: 5.9 µM
//
Compound: C[C@H](Cn1ncnn1)Nc1ncc2cc(Oc3ccc(F)cc3F)c(=O)n(C)c2n1
TGI: > 25 µM
//
Compound: O=c1ccc2cc3ccc4cccc5ccc(c2o1)c3c45
TGI: 55.6 µM
//
Compound: O=c1c2c3c(sc2n2c(-c4cc(-c5ccccc5)nn4-c4ccccc4)nnc2n1Cc1ccccc1)CCCC3
TGI: > 100 µM
//
Compound: O=C(CCCN1CCC2(CC1)CC(=O)N(N1CCOCC1)C2=O)c1ccccc1
TGI: > 100 µM
//
Compound: Cc1cc2c(Br)cc(Br)c(O)c2nc1C(=O)c1ccccc1
TGI: > 86 µM
//
Compound: Cc1cn(C2OC(C)(CO)C(O)C2O)c(=O)[nH]c1=O (stereo unspecified)
TGI: > 100 µM
//
Compound: Nc1c(-c2cccc3ccccc23)c2ccc([N+](=O)[O-])cc2c(=O)n1-c1nc2ccccc2s1
TGI: > 35.5 µM

----------
Tested on: MOLT-4 leukemia
Test: NCI tumour cell line growth inhibition, 48 h
Metric: TGI

Mol Smiles: O=C(NC12CC3CC(CC(C3)C1)C2)C(=O)c1c[nH]c2ccc(Cl)cc12
Value: > 100 µM
--
Mol Smiles: Cc1ccccc1C(O)(c1nccn1C)c1nccn1C
Value: > 100 µM
--
Mol Smiles: CN(C)c1nc(=NCc2ccccc2)ss1
Value: > 6.19 µM

----------
Tested on: SW-620 colon
Assay: NCI tumour cell line growth inhibition, 48 h
Metric: TGI

Compound: O=S(=O)(O)c1cc2ccc1/C=C\c1ccc(cc1S(=O)(=O)O)N=Nc1ccc(c(S(=O)(=O)O)c1)/C=C\c1ccc(cc1S(=O)(=O)O)N=N2
Value: > 100 µM
--
Compound: C=CC[C@]12C[C@@H](C(=O)OC)N(C(=O)OC)[C@H]1N(S(=O)(=O)c1ccccc1)c1ccccc12
Value: > 100 µM
--
Compound: CCN(CC)CC(=O)N1CCc2c([nH]c3ccccc23)C1c1cccnc1 (stereo not drawn)
Value: > 100 µM
--
Compound: CCCn1c(CN(Cc2nc3ccccc3n2CCC)Cc2nc3ccccc3n2CCC)nc2ccccc21
Value: > 100 µM
--
Compound: BrC/C=C/C[P+](c1ccccc1)(c1ccccc1)c1ccccc1
Value: > 100 µM
--
Compound: Cc1cn(C2OC(C)(CO)C(O)C2O)c(=O)[nH]c1=O (stereo not drawn)
Value: > 100 µM
--
Compound: O=S1(=O)NCCCN1CCNc1nccc(-c2c(-c3cccc(O)c3)nc3sccn23)n1
Value: > 100 µM
--
Compound: COc1ccccc1/C=C/C(=O)/C=C/c1ccccc1O
Value: 1.47 µM
--
Compound: C=C1CC2(OC1=O)C(=O)N(CCCN1C(=O)C3(CC(=C)C(=O)O3)c3ccccc31)c1ccccc12 (stereo not drawn)
Value: 2.08 µM
--
Compound: OB1OCc2cc(/C=C/c3cccc(C(F)(F)F)c3)ccc21
Value: > 100 µM
--
Compound: C(=N\NC1=NCCCN1)/c1ccc2ccccc2c1
Value: 28.4 µM
--
Compound: CCSc1nc(N)c2cn[nH]c2n1
Value: > 100 µM
--
Compound: Cc1ccccc1Nc1nc2c(s1)C(=O)c1ccccc1C2=O
Value: 6.65 µM
--
Compound: O=C1C=CC(=O)N1Nc1ccc([N+](=O)[O-])cc1[N+](=O)[O-]
Value: > 100 µM
--
Compound: Cc1cc(Nc2nc(SCc3ccc(C(=O)Nc4ccc(F)cc4N)cc3)nn3cccc23)n[nH]1
Value: > 100 µM
--
Compound: COc1cc2cnc3c4ccccc4ccc3c2cc1OC
Value: > 100 µM
--
Compound: Cc1cc(N(CCC#N)CCC#N)ccc1/C=C1N=C(/C=C/c2ccccc2)OC(=O)N\1
Value: > 100 µM
--
Compound: Cc1nnc(N/N=C(/C(=O)C(C#N)c2ccccc2)C(C#N)c2ccccc2)n1N (stereo not drawn)
Value: 8.19 µM
